Target: T1, human FRα (Homo sapiens, UniProt P15328)
T1 construct: CD33 leader (signal peptide) (N, cleaved yes); made in house; host or cells: in-house suspension-adapted CHO cell line
T1 sequence (P15328 with tags, fused parts or gaps): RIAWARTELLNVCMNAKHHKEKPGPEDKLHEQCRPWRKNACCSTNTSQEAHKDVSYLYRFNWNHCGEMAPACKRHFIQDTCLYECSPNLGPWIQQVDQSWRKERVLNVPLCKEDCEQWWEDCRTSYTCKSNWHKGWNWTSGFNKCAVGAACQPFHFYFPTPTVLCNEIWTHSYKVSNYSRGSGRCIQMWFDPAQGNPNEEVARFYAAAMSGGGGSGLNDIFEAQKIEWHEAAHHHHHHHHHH
Test: HTRF epitope competition assay with Comparator 1 IgG
Type: binding
Details: n > 2; human IgG1 format
ENDPOINT_LABEL: HTRF epitope competition assay, geomean IC50 (M), Comparator 1 IgG

Q: Please give the measured HTRF epitope competition assay, geomean IC50 (M), Comparator 1 IgG for this molecule: AB1370095: anti-FRα fully human IgG1 antibody; VH SEQ ID NO: 45, VL SEQ ID NO: 46 (antibody, V domains shown) VH: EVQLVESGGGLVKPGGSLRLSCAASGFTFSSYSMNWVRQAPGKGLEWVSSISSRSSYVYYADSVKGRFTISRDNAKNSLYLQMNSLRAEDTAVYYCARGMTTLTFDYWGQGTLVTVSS VL: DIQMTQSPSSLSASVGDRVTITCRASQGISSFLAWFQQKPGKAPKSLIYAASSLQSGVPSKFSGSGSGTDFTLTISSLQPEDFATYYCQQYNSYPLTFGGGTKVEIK
Result: inhibited

Q: Try AB1370035: anti-FRα fully human IgG1 antibody; VH SEQ ID NO: 41, VL SEQ ID NO: 42 (antibody, V domains shown) VH: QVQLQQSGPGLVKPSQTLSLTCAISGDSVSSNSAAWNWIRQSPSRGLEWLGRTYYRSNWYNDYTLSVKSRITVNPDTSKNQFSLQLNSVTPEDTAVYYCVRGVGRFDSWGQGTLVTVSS VL: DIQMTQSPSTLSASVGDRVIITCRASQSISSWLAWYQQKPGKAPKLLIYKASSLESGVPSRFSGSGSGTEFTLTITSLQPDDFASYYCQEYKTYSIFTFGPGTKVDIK next.
Result: inhibited

Q: Try AB1370026: anti-FRα fully human IgG1 antibody; VH SEQ ID NO: 39, VL SEQ ID NO: 40 (antibody, V domains shown) VH: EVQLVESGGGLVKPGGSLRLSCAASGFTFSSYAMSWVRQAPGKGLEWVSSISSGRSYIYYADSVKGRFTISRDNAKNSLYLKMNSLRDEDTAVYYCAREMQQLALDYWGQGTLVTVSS VL: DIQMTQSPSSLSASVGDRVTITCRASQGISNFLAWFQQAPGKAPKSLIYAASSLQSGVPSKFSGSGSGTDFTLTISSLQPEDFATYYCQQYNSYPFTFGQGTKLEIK next.
Result: inhibited

Q: Try AB1370083: anti-FRα fully human IgG1 antibody; VH SEQ ID NO: 43, VL SEQ ID NO: 44 (antibody, V domains shown) VH: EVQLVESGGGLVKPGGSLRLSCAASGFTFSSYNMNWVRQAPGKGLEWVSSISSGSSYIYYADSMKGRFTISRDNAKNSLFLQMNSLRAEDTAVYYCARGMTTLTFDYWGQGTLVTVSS VL: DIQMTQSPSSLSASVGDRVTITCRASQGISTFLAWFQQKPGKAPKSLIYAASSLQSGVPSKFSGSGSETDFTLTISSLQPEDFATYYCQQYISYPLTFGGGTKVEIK next.
Result: inhibited

Taken from patent US20230295293A1.
